Please respond with reported pIC50 for every item in the list.
Molecular target: Kdr (Homo sapiens, UniProt P35968)
Construct: Kinases are expressed as either kinase domains or full length constructs; made in house
Sequence (P35968 20-1356, species assumed): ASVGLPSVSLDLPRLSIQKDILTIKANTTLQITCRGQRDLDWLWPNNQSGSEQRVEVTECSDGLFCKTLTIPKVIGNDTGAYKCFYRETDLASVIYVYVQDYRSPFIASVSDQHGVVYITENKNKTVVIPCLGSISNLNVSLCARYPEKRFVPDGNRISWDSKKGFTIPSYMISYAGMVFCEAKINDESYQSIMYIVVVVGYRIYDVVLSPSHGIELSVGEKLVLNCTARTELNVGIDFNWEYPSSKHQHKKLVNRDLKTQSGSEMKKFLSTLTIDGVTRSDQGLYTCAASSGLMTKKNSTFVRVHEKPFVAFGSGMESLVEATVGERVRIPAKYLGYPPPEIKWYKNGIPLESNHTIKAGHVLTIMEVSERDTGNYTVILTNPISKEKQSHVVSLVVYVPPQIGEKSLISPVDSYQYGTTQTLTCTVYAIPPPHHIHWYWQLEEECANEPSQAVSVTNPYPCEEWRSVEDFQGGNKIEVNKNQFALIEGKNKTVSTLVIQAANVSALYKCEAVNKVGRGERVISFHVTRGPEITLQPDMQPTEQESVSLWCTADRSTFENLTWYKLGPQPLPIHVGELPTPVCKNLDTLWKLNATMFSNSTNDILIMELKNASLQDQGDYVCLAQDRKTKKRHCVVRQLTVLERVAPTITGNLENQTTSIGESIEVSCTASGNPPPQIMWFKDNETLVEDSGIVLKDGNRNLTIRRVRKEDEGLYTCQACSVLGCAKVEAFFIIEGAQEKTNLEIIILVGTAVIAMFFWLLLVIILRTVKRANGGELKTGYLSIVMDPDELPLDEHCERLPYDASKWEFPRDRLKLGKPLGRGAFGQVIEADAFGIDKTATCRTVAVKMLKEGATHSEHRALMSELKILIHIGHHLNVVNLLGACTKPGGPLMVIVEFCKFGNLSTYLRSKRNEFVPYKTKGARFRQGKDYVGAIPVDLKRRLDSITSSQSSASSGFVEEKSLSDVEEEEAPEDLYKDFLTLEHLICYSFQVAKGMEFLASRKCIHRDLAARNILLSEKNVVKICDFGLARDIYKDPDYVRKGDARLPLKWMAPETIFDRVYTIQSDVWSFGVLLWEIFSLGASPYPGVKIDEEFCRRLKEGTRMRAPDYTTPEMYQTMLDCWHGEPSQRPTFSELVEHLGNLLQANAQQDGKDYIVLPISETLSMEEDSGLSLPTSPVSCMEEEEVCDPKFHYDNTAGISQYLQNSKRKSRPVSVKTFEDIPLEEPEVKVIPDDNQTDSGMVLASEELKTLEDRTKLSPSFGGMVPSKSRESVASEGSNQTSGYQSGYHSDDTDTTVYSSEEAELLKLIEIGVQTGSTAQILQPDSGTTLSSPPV
Test: Kinase inhibition assay (33P transfer), Kdr
Format: biochemical
Conditions: read-out: KDR-1
pIC50: −log10 of the molar value.

COc1cc(Nc2ncnc(-n3c(NCc4ccccc4F)nc4ccccc43)n2)cc(OC)c1OC; > 6.10
COc1cc(Nc2ncnc(-c3cccnc3Cl)n2)cc(OC)c1OCCN1CCOCC1; 5.13 to 5.29
COc1cc(Nc2ncnc(-n3c(NCCc4ccncc4)nc4ccccc43)n2)cc(OC)c1OC; 5.32 to 6.10
COc1cc(Nc2ncnc(NN3CCCC3)n2)cc(OC)c1OC; 4.89 to 5.00

State recorded pIC50 for all listed molecules.
1. CCN(c1ccccc1)c1ncnc(Nc2cc(OC)c(OC)c(OC)c2)n1
2. Nc1nc2ccccc2n1-c1ncnc(Nc2cccnc2)n1

### Response
["> 5.98", "5.10 to 5.88"]
